- Target Entity: Serine/threonine-protein kinase SIK1 (Homo sapiens) (UniProt P57059)
- Sequence (P57059 whole entry): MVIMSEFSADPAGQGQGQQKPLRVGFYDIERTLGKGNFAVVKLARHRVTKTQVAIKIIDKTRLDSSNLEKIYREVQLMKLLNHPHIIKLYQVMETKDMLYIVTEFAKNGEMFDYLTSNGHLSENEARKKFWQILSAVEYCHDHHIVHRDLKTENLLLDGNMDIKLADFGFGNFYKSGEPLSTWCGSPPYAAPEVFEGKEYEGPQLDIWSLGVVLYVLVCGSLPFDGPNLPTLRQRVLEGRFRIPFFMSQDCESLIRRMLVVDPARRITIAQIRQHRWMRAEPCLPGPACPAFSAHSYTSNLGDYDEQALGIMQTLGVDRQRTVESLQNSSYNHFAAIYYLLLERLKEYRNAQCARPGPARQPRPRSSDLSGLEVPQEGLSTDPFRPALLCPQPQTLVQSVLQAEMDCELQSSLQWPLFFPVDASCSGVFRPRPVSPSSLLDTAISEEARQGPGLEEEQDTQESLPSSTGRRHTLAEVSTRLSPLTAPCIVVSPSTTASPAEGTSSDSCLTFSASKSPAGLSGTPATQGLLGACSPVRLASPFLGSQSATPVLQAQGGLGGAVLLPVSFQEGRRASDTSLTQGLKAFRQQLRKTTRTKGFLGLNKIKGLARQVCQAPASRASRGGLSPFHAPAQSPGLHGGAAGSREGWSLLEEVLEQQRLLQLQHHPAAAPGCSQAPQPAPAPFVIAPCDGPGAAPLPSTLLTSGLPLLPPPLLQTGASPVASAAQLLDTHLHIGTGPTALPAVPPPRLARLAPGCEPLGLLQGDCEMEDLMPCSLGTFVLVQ
- Experimental Parameters: at 1 µM
# label = class 1 if residual activity >= 80% else class 0

compound=O=c1cc(N2CCOCC2)oc2c1ccc1ccccc12 target_entity="Serine/threonine-protein kinase SIK1 (Homo sapiens) (UniProt P57059)" class_assignment="class 1"
compound=N#C/C(=C1/Nc2ccccc2S1)c1ccnc(NCCc2cccnc2)n1 target_entity="Serine/threonine-protein kinase SIK1 (Homo sapiens) (UniProt P57059)" class_assignment="class 1"
compound=Cn1c2ccccc2c2c3c(c4c5ccccc5n(CCC#N)c4c21)CNC3=O target_entity="Serine/threonine-protein kinase SIK1 (Homo sapiens) (UniProt P57059)" class_assignment="class 0"
compound=COc1ccc(-c2cnc3c(-c4ccsc4)cnn3c2)cc1 target_entity="Serine/threonine-protein kinase SIK1 (Homo sapiens) (UniProt P57059)" class_assignment="class 1"
compound=O=C1Nc2ccc(Cl)cc2/C1=C/c1cc(Cl)c(O)c(Cl)c1 target_entity="Serine/threonine-protein kinase SIK1 (Homo sapiens) (UniProt P57059)" class_assignment="class 0"
compound=COc1ccc2c(c1)c(C1=C(c3c[nH]c4ccccc34)C(=O)NC1=O)cn2CCCN(C)C target_entity="Serine/threonine-protein kinase SIK1 (Homo sapiens) (UniProt P57059)" class_assignment="class 0"
compound=NC(=O)c1cccc(-c2cc(Nc3ccc(OC(F)(F)F)cc3)ncn2)c1 target_entity="Serine/threonine-protein kinase SIK1 (Homo sapiens) (UniProt P57059)" class_assignment="class 1"
compound="CSc1nc(-c2ccc(F)cc2)c(-c2ccnc(NC(C)c3ccccc3)c2)[nH]1 (stereo unspecified)" target_entity="Serine/threonine-protein kinase SIK1 (Homo sapiens) (UniProt P57059)" class_assignment="class 1"
compound=COc1cc2nccc(Oc3ccc(NC(=S)NC(=O)c4ccccc4C)cc3)c2cc1OC target_entity="Serine/threonine-protein kinase SIK1 (Homo sapiens) (UniProt P57059)" class_assignment="class 0"

----------
# maps each entry to its residual activity
- Target Entity: Mitogen-activated protein kinase 13 (Homo sapiens) (UniProt O15264)
- Sequence (O15264 whole entry): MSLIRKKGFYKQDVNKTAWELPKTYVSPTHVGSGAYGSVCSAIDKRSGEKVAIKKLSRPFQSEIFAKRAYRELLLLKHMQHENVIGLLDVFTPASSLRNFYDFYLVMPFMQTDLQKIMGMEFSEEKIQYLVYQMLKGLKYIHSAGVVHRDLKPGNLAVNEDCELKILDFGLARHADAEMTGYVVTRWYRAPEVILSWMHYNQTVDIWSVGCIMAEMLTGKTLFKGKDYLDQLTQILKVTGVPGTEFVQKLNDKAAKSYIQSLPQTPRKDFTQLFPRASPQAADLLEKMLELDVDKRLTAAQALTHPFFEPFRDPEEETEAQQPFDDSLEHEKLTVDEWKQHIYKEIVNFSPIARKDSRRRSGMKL
- Experimental Parameters: at 1 µM
Measure Name: residual activity (%)

compound=Cn1sc(=O)n(Cc2ccccc2)c1=O measure_name="residual activity" quantitative_result=100
compound=CC(C)(C)n1nc(Cc2cccc3ccccc23)c2c(N)ncnc21 measure_name="residual activity" quantitative_result=101
compound=CCCC(=O)Oc1ccc2[nH]c(C(=O)c3cc4ccccc4[nH]3)cc2c1 measure_name="residual activity" quantitative_result=104
compound=CN([C@@H](Cc1ccc(OS(=O)(=O)c2cccc3cnccc23)cc1)C(=O)N1CCN(c2ccccc2)CC1)S(=O)(=O)c1cccc2cnccc12 measure_name="residual activity" quantitative_result=81
compound=Nc1ncnc2[nH]nc(Nc3ccc(F)cc3)c12 measure_name="residual activity" quantitative_result=103
compound=Cn1c2ccccc2c2c3c(c4c5ccccc5n(CCC#N)c4c21)CNC3=O measure_name="residual activity" quantitative_result=99
compound=O=C1NC(=O)C(c2cn(CCCO)c3ncccc23)=C1c1cnccn1 measure_name="residual activity" quantitative_result=99
compound=O=c1cc(N2CCOCC2)oc2c1ccc1ccccc12 measure_name="residual activity" quantitative_result=100
compound=O=c1cc(N2CCOCC2)oc2c(-c3ccccc3)cccc12 measure_name="residual activity" quantitative_result=101
compound="O=C(NC(NC(=S)Nc1ccc(F)c([N+](=O)[O-])c1)C(Cl)(Cl)Cl)C(c1ccccc1)c1ccccc1 (centres undefined)" measure_name="residual activity" quantitative_result=95
compound=CCCCc1c(-c2ccc(O)cc2)[nH]c2nccnc12 measure_name="residual activity" quantitative_result=98
compound=N#C/C(=C\c1ccc(O)c(O)c1)C(=O)NCc1ccccc1 measure_name="residual activity" quantitative_result=125
compound=O=C(Nc1nc2ccccc2n1CCN1CCOCC1)c1cccc([N+](=O)[O-])c1 measure_name="residual activity" quantitative_result=109
compound=O=C1Cc2c([nH]c3ccc(Br)cc23)-c2ccccc2N1 measure_name="residual activity" quantitative_result=98
compound=O=C1NC(=O)c2c1c1c3ccccc3[nH]c1n1cncc21 measure_name="residual activity" quantitative_result=93
compound=COc1cc2c(cc1OC)-c1n[nH]c(Nc3cccc(F)c3)c1C2 measure_name="residual activity" quantitative_result=102
compound=N#C/C(=C1/Nc2ccccc2S1)c1ccnc(NCCc2cccnc2)n1 measure_name="residual activity" quantitative_result=78
compound=COc1cc2nccc(Oc3ccc(NC(=S)NC(=O)c4ccccc4C)cc3)c2cc1OC measure_name="residual activity" quantitative_result=101
compound=CN(C)S(=O)(=O)c1ccc2c(c1)/C(=C/c1cc3c([nH]1)CCCC3)C(=O)N2 measure_name="residual activity" quantitative_result=97

----------
- Target Entity: Ephrin type-B receptor 1 (Homo sapiens) (UniProt P54762)
- Sequence (whole entry): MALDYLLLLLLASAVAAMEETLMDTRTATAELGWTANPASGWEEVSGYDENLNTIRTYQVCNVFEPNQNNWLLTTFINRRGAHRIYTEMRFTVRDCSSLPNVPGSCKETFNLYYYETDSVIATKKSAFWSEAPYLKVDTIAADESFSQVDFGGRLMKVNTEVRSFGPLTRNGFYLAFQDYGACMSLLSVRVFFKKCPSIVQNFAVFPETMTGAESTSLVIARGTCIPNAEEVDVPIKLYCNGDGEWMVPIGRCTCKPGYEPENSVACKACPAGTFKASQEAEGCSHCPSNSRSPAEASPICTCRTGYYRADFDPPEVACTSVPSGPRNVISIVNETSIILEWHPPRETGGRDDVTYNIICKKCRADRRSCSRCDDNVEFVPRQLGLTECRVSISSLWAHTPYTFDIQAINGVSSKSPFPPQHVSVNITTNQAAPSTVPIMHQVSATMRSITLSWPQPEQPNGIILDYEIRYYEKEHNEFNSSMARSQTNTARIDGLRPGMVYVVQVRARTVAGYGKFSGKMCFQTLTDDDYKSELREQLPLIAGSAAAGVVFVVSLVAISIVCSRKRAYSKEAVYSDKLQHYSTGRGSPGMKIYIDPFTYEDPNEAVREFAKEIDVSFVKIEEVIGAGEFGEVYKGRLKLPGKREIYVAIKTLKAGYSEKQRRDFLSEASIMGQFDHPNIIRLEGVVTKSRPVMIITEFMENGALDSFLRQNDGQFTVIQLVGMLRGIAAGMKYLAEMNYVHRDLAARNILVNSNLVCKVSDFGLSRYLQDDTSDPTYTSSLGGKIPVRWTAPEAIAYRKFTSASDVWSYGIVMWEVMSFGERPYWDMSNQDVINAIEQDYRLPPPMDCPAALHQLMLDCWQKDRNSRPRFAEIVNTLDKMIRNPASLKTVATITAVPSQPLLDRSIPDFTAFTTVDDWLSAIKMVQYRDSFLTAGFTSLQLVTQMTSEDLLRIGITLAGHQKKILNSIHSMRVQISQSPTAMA
- Experimental Parameters: at 10 µM
Measure Name: residual activity

smiles_entry=NC(=O)c1ccc(-c2nc(-c3ccc4c(c3)OCCO4)c(-c3ccccn3)[nH]2)cc1 measure_name="residual activity" result=85%
smiles_entry=N#C/C(=C1/Nc2ccccc2S1)c1ccnc(NCCc2cccnc2)n1 measure_name="residual activity" result=55%
smiles_entry=CN(C)S(=O)(=O)c1ccc2c(c1)/C(=C/c1cc3c([nH]1)CCCC3)C(=O)N2 measure_name="residual activity" result=64%
smiles_entry=O=C(CCCc1ccc(-c2ccccc2F)cc1)Nc1ccc(O)cc1 measure_name="residual activity" result=98%
smiles_entry=COc1ccc(CNC(=O)Nc2ncc([N+](=O)[O-])s2)cc1 measure_name="residual activity" result=80%

----------
- Target Entity: MAP kinase-activated protein kinase 5 (Homo sapiens)
- Experimental Parameters: at 10 µM
Measure Name: residual activity (%)

smiles_entry=CCN(CC)CCNC(=O)c1c(C)[nH]c(/C=C2\C(=O)Nc3ccc(Cl)cc32)c1C u=% quantitative_result=49
smiles_entry=O=C(c1ccccc1)c1ccc(N2CCOCC2)cc1O u=% quantitative_result=74
smiles_entry=Nc1ncnc2[nH]nc(Nc3ccc(F)cc3)c12 u=% quantitative_result=91
smiles_entry=CC(C)(C)n1nc(Cc2cccc3ccccc23)c2c(N)ncnc21 u=% quantitative_result=33
smiles_entry=O=C(Nc1ccc(Cl)cc1)c1ccccc1NCc1ccncc1 u=% quantitative_result=51
smiles_entry=O=C1Cc2c([nH]c3ccc([N+](=O)[O-])cc23)-c2ccccc2N1 u=% quantitative_result=81
smiles_entry=O=C1NC(=O)c2c1c1c3ccccc3[nH]c1n1cncc21 u=% quantitative_result=71
smiles_entry=O=C(O)/C=C/c1cc(Br)c(Br)c(Br)c1Br u=% quantitative_result=28
smiles_entry=O=c1c(-c2ccc(F)cc2)c(-c2ccncc2)[nH]n1-c1ccc(Cl)cc1 u=% quantitative_result=74
smiles_entry=O=C(c1cc2cc(O)ccc2[nH]1)c1cc2cc(O)ccc2[nH]1 u=% quantitative_result=40
smiles_entry=COc1cc2nccc(Oc3ccc(NC(=S)NC(=O)c4ccccc4C)cc3)c2cc1OC u=% quantitative_result=79
